# experimentalTarget: T1, CD32a-H131 (FcgRIIa-H131) (Homo sapiens, UniProt P12318)
# T1 sequence (P12318 34-217 limits assumed): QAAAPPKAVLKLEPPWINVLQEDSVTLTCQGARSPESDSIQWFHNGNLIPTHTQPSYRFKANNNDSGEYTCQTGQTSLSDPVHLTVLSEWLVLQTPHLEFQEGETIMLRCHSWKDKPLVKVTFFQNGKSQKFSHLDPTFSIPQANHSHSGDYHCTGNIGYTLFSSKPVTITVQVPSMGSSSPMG
# testName: SPR binding to FcgR-his: CD32a-H131
# conditionSet: 1 μM antibody, anti-his Fab captured FcgR-his
measure: % Rmax, binding to hCD32a-H131 (%)
Answers are plain numbers, in %.

Reported % Rmax, binding to hCD32a-H131 for mAb13-IgG2.5 (protein, left off: another chain or arm of the molecule) constant: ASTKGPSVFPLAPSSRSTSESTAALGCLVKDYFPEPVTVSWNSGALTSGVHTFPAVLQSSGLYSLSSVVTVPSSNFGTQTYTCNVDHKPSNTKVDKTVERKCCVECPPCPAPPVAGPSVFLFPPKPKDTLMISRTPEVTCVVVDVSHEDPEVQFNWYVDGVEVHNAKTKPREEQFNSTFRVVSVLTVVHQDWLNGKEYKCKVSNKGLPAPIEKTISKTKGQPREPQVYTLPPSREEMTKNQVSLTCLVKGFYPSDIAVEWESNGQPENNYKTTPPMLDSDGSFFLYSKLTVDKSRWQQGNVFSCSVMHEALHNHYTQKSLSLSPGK was 39
